Every entry's value here was drawn from patent US20090170886A1.

# tested_on: androgen receptor in MDA-MB453-MMTV clone 54-19 cells (Homo sapiens)
# Sequence (P10275 whole entry Q868H, form open): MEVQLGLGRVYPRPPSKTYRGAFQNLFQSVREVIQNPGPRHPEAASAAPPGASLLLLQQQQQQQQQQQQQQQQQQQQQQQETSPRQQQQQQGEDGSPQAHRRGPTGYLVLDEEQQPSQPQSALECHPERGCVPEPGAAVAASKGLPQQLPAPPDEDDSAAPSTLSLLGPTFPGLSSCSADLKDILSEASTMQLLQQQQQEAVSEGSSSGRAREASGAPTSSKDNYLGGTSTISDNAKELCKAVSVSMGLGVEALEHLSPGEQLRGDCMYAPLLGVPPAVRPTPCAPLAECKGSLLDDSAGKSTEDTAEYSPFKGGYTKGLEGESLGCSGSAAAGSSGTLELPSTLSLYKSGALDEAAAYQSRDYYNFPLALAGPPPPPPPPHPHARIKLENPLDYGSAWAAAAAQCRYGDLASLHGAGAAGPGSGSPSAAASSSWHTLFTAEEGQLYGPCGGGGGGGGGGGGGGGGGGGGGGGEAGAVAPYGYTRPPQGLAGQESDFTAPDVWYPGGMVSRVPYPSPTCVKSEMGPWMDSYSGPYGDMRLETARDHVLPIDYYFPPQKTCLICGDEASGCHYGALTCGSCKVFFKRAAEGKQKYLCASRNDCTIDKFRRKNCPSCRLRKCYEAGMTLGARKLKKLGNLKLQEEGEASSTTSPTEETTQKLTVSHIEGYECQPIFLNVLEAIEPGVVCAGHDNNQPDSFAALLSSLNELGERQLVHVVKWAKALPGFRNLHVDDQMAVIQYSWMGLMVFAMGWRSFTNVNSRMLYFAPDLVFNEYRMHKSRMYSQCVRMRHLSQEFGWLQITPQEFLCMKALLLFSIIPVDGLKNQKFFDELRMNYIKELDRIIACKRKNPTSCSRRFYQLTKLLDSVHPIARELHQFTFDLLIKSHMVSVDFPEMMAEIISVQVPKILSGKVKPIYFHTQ
# assay_comment: AR Antagonist Cell Assay (MMTV-luciferase reporter, DHT-induced)
# assay_setup: MDA-MB453-MMTV clone 54-19, 100 pM DHT, 17 hr; mean of multiple tests
readout_type: log10 of IC50 (log10 of the value in nM)
Response schema: value (number) is log10 of IC50 in units of nM.

Please report the measured log10 of IC50 for CCC(Oc1ccc(C#N)c(C(F)(F)F)c1)c1cncc(O)c1 (stereo not drawn)
2.31

Please report the measured log10 of IC50 for CC(Oc1ccc(C#N)c(C(F)(F)F)c1)c1cncc(O)c1 (single isomer, unassigned; (+)) [Example 74]
2.05

Please report the measured log10 of IC50 for C=CCC(Oc1ccc(C#N)c(C(F)(F)F)c1)c1cccc(O)c1 (single isomer, unassigned; (+)) [Example 18]
1.93

Please report the measured log10 of IC50 for CC(Oc1ccc(C#N)c(C(F)(F)F)c1)c1cccc(C#N)c1 (stereo not drawn) [Example 30]
0.85

Please report the measured log10 of IC50 for CCCC(Oc1ccc(C#N)c(C(F)(F)F)c1)c1cccc(O)c1 (racemic) [Example 14]
1.56

Please report the measured log10 of IC50 for CC(Oc1ccc(C#N)c(C(F)(F)F)c1)c1cccc(O)c1 (single isomer, unassigned; (-)) [Example 9]
1.11

Please report the measured log10 of IC50 for CCCC(Oc1ccc(C#N)c(C(F)(F)F)c1)c1cncc(O)c1 (stereo not drawn)
1.57

Please report the measured log10 of IC50 for COc1cncc(C(C)Oc2ccc(C#N)c(C(F)(F)F)c2)c1 (stereo not drawn)
2.64

Please report the measured log10 of IC50 for N#Cc1ccc(OCc2ccccc2)cc1Cl
2.03

Please report the measured log10 of IC50 for N#Cc1ccc(OCc2cccc(O)c2)cc1Cl
0.60

Please report the measured log10 of IC50 for CC(Oc1ccc(C#N)c(C(F)(F)F)c1)c1ccccc1C(F)(F)F (stereo not drawn)
2.60

Please report the measured log10 of IC50 for CC(Oc1ccc(C#N)c(C(F)(F)F)c1)c1cccc(Cl)c1 (stereo not drawn)
1.75

Please report the measured log10 of IC50 for CC(C)CC(Oc1ccc(C#N)c(C(F)(F)F)c1)c1cccc(O)c1 (single isomer, unassigned; (+)) [Example 21]
1.90

Please report the measured log10 of IC50 for COC(=O)c1ccc(C(C)Oc2ccc(C#N)c(C(F)(F)F)c2)cc1 (racemic)
2.12

Please report the measured log10 of IC50 for CC(Oc1ccc(C#N)c(C(F)(F)F)c1)c1cccc(O)c1 (racemic) [Example 8]
2.72

Please report the measured log10 of IC50 for CC(C)CC(Oc1ccc(C#N)c(C(F)(F)F)c1)c1cccnc1 (stereo not drawn)
1.70

Please report the measured log10 of IC50 for C[C@H](Oc1ccc(C#N)c(C(F)(F)F)c1)c1ccccc1
2.58

Please report the measured log10 of IC50 for CC(Oc1ccc(C#N)c(C(F)(F)F)c1)c1cncc(O)c1 (stereo not drawn) [Example 73]
1.85

Please report the measured log10 of IC50 for CC(C)CC(Oc1ccc(C#N)c(C(F)(F)F)c1)c1cccc(O)c1 (racemic) [Example 20]
1.60

Please report the measured log10 of IC50 for C=CCC(Oc1ccc(C#N)c(C(F)(F)F)c1)c1cccc(O)c1 (single isomer, unassigned; (-)) [Example 19]
1.53

Please report the measured log10 of IC50 for CC(Oc1ccc(C#N)c(C(F)(F)F)c1)c1ccccc1 (racemic) [Example 1]
1.95

Please report the measured log10 of IC50 for CCC(Oc1ccc(C#N)c(C(F)(F)F)c1)c1ccccn1 (stereo not drawn)
1.43

Please report the measured log10 of IC50 for CC(Oc1ccc(C#N)cc1Cl)c1ccccc1 (stereo not drawn)
1.93

Please report the measured log10 of IC50 for CC(Oc1ccc(C#N)c(C(F)(F)F)c1)c1ccccc1 (stereo not drawn) [Example 53]
1.74

Please report the measured log10 of IC50 for CC(Oc1ccc(C#N)c(C(F)(F)F)c1)c1cccnc1 (single isomer, unassigned) [Example 34]
1.97

Please report the measured log10 of IC50 for N#Cc1ccc(OCc2cccc(O)c2)cc1C(F)(F)F
0.78

Please report the measured log10 of IC50 for N#Cc1ccc(OCc2ccccc2)cc1C(F)(F)F
2.71
